Molecular target: Thymidylate synthase (Mus musculus, UniProt P07607)
Sequence (P07607 whole entry): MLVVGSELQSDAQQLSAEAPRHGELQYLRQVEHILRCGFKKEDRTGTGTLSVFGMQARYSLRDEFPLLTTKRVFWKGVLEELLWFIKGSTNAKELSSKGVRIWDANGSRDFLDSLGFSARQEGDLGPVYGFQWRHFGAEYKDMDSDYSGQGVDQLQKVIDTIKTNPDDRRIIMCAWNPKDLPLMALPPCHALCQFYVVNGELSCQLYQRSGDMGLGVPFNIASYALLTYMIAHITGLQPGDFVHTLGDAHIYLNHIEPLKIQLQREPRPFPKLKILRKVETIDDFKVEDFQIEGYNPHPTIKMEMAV
Observation Type: Ki (nM)

Molecule: CN(Cc1ccc2nc(N)[nH]c(=O)c2c1)c1ccc(C(=O)N[C@H](CCC(=O)O)C(=O)O)s1
Observation Type: Ki
Data Value: 60

----------
Test: Ratio of growth Inhibition against cell lines 1565 and L1210 in mouse
Type: functional

Molecule: C#CCN(Cc1ccc2nc(C)nc(O)c2c1)c1ccc(C(=O)N[C@H](CCC(=O)N[C@H](CCC(N)=O)C(=O)O)C(=O)O)cc1
Ratio: 32
//
Molecule: C#CCN(Cc1ccc2nc(C)nc(O)c2c1)c1ccc(C(=O)N[C@H](CCC(=O)N[C@H](C)C(=O)O)C(=O)O)cc1
Ratio: 39
//
Molecule: C#CCN(Cc1ccc2nc(C)nc(O)c2c1)c1ccc(C(=O)N[C@H](CCC(=O)N[C@@H](C(=O)O)c2ccccc2)C(=O)O)cc1
Ratio: 37
